Recorded viability, T/C, one value per entry.
# Tested on: 439559-082-T-J2-PDC spheroids viability
# protocol-text: Anticancer human tumor 439559-082-T-J2-PDC patient-derived colon adenocarcinoma cell line growth inhibition [GQUAD]
# assay-conditions: second compound 3.16 µM; first compound 0.1 µM; hits give low values
measured-quantity: viability, T/C (%)

[[record]]
compound = "CC(C)n1c(=O)n(C)c2cnc3cc(F)c(-c4ccc(OCCCN5CCCCC5)nc4)cc3c21 + CN(C)c1ccc(Nc2c3ccc(NC(=O)CCN4CCCC4)cc3nc3cc(NC(=O)CCN4CCCC4)ccc23)cc1"
measured_quantity = "viability, T/C"
reading = 113

[[record]]
compound = "CC1COCCN1c1cc(C2(S(C)(=N)=O)CC2)nc(-c2ccnc3[nH]ccc23)n1 (stereo unspecified) + Cc1[nH]c2ccc(F)cc2c1-c1nc2c3cccnc3c3ncccc3c2[nH]1"
measured_quantity = "viability, T/C"
reading = 94.2

[[record]]
compound = "Nc1ccn(C2OC(CO)C(O)C2(F)F)c(=O)n1 (stereo unspecified) + Cc1cnc(CNC(=O)c2c(=O)c3ccc(N4CCCN(C)CC4)nc3n3c2sc2ccccc23)cn1"
measured_quantity = "viability, T/C"
reading = 56.1

[[record]]
compound = "CC1COCCN1c1cc(-c2ccnn2C)c2ccnc(-c3ccn[nH]3)c2n1 (stereo unspecified) + Cc1[nH]c2ccc(F)cc2c1-c1nc2c3cccnc3c3ncccc3c2[nH]1"
measured_quantity = "viability, T/C"
reading = 73.5

[[record]]
compound = "COc1cc(C2c3cc4c(cc3C(OC3OC5COC(C)OC5C(O)C3O)C3COC(=O)C23)OCO4)cc(OC)c1O (stereo unspecified) + Cc1cnc(CNC(=O)c2c(=O)c3ccc(N4CCCN(C)CC4)nc3n3c2sc2ccccc23)cn1"
measured_quantity = "viability, T/C"
reading = 73.3

[[record]]
compound = "CC1COCCN1c1cc(-c2ccnn2C)c2ccnc(-c3ccn[nH]3)c2n1 (stereo unspecified) + CN(C)c1ccc(Nc2c3ccc(NC(=O)CCN4CCCC4)cc3nc3cc(NC(=O)CCN4CCCC4)ccc23)cc1"
measured_quantity = "viability, T/C"
reading = 75.1


* * *

# Test system: 439559-082-T-J2-PDC spheroids viability
# protocol-text: Anticancer human tumor 439559-082-T-J2-PDC cell line growth inhibition [GQUAD];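 note: spheroids exposed to the agents for 7 days before readout; percent of luminescence signal in DMSO vehicle wells taken as 100% viability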
# assay-conditions: second compound 0.0316 µM; first compound 3.16 µM; hits give low values
# strict inequality: viability, T/C < 80% yields True, everything else yields False

[[record]]
compound = "COc1ncnc(C2CC2)c1-c1ncc2cnn(Cc3ccc(-c4nc(C(F)(F)F)cn4C(C)C)cc3)c2n1 + CN(C)c1ccc(Nc2c3ccc(NC(=O)CCN4CCCC4)cc3nc3cc(NC(=O)CCN4CCCC4)ccc23)cc1"
system_name = "439559-082-T-J2-PDC spheroids viability"
discrete_label = "False"

[[record]]
compound = "CC1COCCN1c1cc(C2(S(C)(=N)=O)CC2)nc(-c2ccnc3[nH]ccc23)n1 (stereo not given) + CN(C)c1ccc(Nc2c3ccc(NC(=O)CCN4CCCC4)cc3nc3cc(NC(=O)CCN4CCCC4)ccc23)cc1"
system_name = "439559-082-T-J2-PDC spheroids viability"
discrete_label = "False"

[[record]]
compound = "CC(C)(O)C1CCC(Nc2ccc3ncc(-c4cccc(C(F)(F)F)c4)n3n2)CC1 (stereo not given) + CN(C)c1ccc(Nc2c3ccc(NC(=O)CCN4CCCC4)cc3nc3cc(NC(=O)CCN4CCCC4)ccc23)cc1"
system_name = "439559-082-T-J2-PDC spheroids viability"
discrete_label = "True"

[[record]]
compound = "C#Cc1c(F)ccc2cc(O)cc(-c3ncc4c(N5CC6CCC(C5)N6)nc(OCC56CCCN5CC(F)C6)nc4c3F)c12 (stereo not given) + Cc1cnc(CNC(=O)c2c(=O)c3ccc(N4CCCN(C)CC4)nc3n3c2sc2ccccc23)cn1"
system_name = "439559-082-T-J2-PDC spheroids viability"
discrete_label = "True"

[[record]]
compound = "COc1cccc2c1C(=O)c1c(O)c3c(c(O)c1C2=O)CC(O)(C(=O)CO)CC3OC1CC(N)C(O)C(C)O1 (stereo not given) + CN(C)c1ccc(Nc2c3ccc(NC(=O)CCN4CCCC4)cc3nc3cc(NC(=O)CCN4CCCC4)ccc23)cc1"
system_name = "439559-082-T-J2-PDC spheroids viability"
discrete_label = "True"

[[record]]
compound = "Nc1ccn(C2OC(CO)C(O)C2(F)F)c(=O)n1 (stereo not given) + CN(C)c1ccc(Nc2c3ccc(NC(=O)CCN4CCCC4)cc3nc3cc(NC(=O)CCN4CCCC4)ccc23)cc1"
system_name = "439559-082-T-J2-PDC spheroids viability"
discrete_label = "True"

[[record]]
compound = "Cc1cccc(N(C)C(=O)C2C(O)CCN2c2nc(C)cc(C(F)(F)F)c2C#N)c1 (stereo not given) + Cc1cnc(CNC(=O)c2c(=O)c3ccc(N4CCCN(C)CC4)nc3n3c2sc2ccccc23)cn1"
system_name = "439559-082-T-J2-PDC spheroids viability"
discrete_label = "False"

[[record]]
compound = "O=c1[nH]cc(F)c(=O)[nH]1 + CN(C)c1ccc(Nc2c3ccc(NC(=O)CCN4CCCC4)cc3nc3cc(NC(=O)CCN4CCCC4)ccc23)cc1"
system_name = "439559-082-T-J2-PDC spheroids viability"
discrete_label = "True"

[[record]]
compound = "Nc1ccn(C2OC(CO)C(O)C2(F)F)c(=O)n1 (stereo not given) + Cc1[nH]c2ccc(F)cc2c1-c1nc2c3cccnc3c3ncccc3c2[nH]1"
system_name = "439559-082-T-J2-PDC spheroids viability"
discrete_label = "True"

[[record]]
compound = "CC(=O)O[C@H]1C(=O)[C@@]2(C)[C@H]([C@H](OC(=O)c3ccccc3)[C@]3(O)C[C@H](OC(=O)[C@H](O)[C@@H](NC(=O)c4ccccc4)c4ccccc4)C(C)=C1C3(C)C)[C@]1(OC(C)=O)CO[C@@H]1C[C@@H]2O + Cc1cnc(CNC(=O)c2c(=O)c3ccc(N4CCCN(C)CC4)nc3n3c2sc2ccccc23)cn1"
system_name = "439559-082-T-J2-PDC spheroids viability"
discrete_label = "True"


* * *

# System: 439559-082-T-J2-PDC spheroids viability
# protocol-text: Anticancer human tumor 439559-082-T-J2-PDC cell line growth inhibition [GQUAD];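 note: spheroids exposed to the agents for 7 days before readout; percent of luminescence signal in DMSO vehicle wells taken as 100% viability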
# assay-conditions: second compound 0.0316 µM; first compound 0.1 µM; hits give low values
measured-quantity: viability, T/C

[[record]]
molecule = "Cc1cccc(N(C)C(=O)C2C(O)CCN2c2nc(C)cc(C(F)(F)F)c2C#N)c1 (stereo not drawn) + CN(C)c1ccc(Nc2c3ccc(NC(=O)CCN4CCCC4)cc3nc3cc(NC(=O)CCN4CCCC4)ccc23)cc1"
system_name = "439559-082-T-J2-PDC spheroids viability"
measured_quantity = "viability, T/C"
reading = "87.8%"

[[record]]
molecule = "O=C(NO)c1cnc(N2CCN(S(=O)(=O)c3ccc4ccccc4c3)CC2)nc1 + Cc1cnc(CNC(=O)c2c(=O)c3ccc(N4CCCN(C)CC4)nc3n3c2sc2ccccc23)cn1"
system_name = "439559-082-T-J2-PDC spheroids viability"
measured_quantity = "viability, T/C"
reading = "88.9%"

[[record]]
molecule = "CC(C)(O)C1CCC(Nc2ccc3ncc(-c4cccc(C(F)(F)F)c4)n3n2)CC1 (stereo not drawn) + Cc1cnc(CNC(=O)c2c(=O)c3ccc(N4CCCN(C)CC4)nc3n3c2sc2ccccc23)cn1"
system_name = "439559-082-T-J2-PDC spheroids viability"
measured_quantity = "viability, T/C"
reading = "96.9%"


* * *

# System: 439559-082-T-J2-PDC spheroids viability
# protocol-text: Anticancer human tumor 439559-082-T-J2-PDC cell line growth inhibition [GQUAD];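 note: spheroids exposed to the agents for 7 days before readout; percent of luminescence signal in DMSO vehicle wells taken as 100% viability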
# assay-conditions: second compound 1 µM; first compound 10 µM; hits give low values
# strict inequality: viability, T/C < 90% yields label 1, everything else yields label 0

[[record]]
molecule = "CC(C)n1c(=O)n(C)c2cnc3cc(F)c(-c4ccc(OCCCN5CCCCC5)nc4)cc3c21 + CN(C)c1ccc(Nc2c3ccc(NC(=O)CCN4CCCC4)cc3nc3cc(NC(=O)CCN4CCCC4)ccc23)cc1"
discrete_label = "label 0"

[[record]]
molecule = "CC(C)(O)C1CCC(Nc2ccc3ncc(-c4cccc(C(F)(F)F)c4)n3n2)CC1 (stereo not given) + Cc1cnc(CNC(=O)c2c(=O)c3ccc(N4CCCN(C)CC4)nc3n3c2sc2ccccc23)cn1"
discrete_label = "label 1"

[[record]]
molecule = "CC(C)n1c(=O)n(C)c2cnc3cc(F)c(-c4ccc(OCCCN5CCCCC5)nc4)cc3c21 + Cc1cnc(CNC(=O)c2c(=O)c3ccc(N4CCCN(C)CC4)nc3n3c2sc2ccccc23)cn1"
discrete_label = "label 1"

[[record]]
molecule = "C=CCn1c(=O)c2cnc(Nc3ccc(N4CCN(C)CC4)cc3)nc2n1-c1cccc(C(C)(C)O)n1 + Cc1[nH]c2ccc(F)cc2c1-c1nc2c3cccnc3c3ncccc3c2[nH]1"
discrete_label = "label 1"


Hey, just so you know, these numbers are from PubChem BioAssay AID2060510.
